- protocol_description: Blood levels after oral gavage dosing of mice (LC-MS)
- condition_label: mouse, blood, po, 40 mg/kg
quantity_measured: concentration at 17 h (nM)
The response must be a number in nM with no trailing unit.

Exercise: # query: concentration at 17 h of entry CCOc1ccc2cc(-c3nn(CC4CCNCC4)c4ncnc(N)c34)ccc2c1 [Compound 29]
Solution: 0

====

- measured_on: CpCDPK1 (Cryptosporidium parvum (strain Iowa II), UniProt A3FQ16)
- Sequence (A3FQ16 1-538): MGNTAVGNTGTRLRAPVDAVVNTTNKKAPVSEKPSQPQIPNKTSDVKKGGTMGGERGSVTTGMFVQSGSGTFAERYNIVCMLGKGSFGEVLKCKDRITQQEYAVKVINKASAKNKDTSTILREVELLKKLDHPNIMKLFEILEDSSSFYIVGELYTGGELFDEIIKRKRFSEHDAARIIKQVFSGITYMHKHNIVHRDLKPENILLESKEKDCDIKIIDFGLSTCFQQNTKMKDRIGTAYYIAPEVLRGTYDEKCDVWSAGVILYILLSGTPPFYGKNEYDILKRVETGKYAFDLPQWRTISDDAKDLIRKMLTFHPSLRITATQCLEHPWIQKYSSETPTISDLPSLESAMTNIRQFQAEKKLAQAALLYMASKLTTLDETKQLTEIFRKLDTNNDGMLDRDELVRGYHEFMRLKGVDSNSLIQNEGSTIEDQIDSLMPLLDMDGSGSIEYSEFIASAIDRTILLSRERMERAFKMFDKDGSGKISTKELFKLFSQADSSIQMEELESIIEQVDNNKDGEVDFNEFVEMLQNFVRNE
- protocol_description: biochemical
- Type: biochemical
- condition_label: read-out: CpCDPK1 IC50
quantity_measured: log10 IC50 (log10 of the value in nM)
// do not treat as linear: log10 of IC50, unit nM

Exercise: # query: log10 IC50 of entry CC(C)n1nc(-c2cccc(Cl)c2)c2c(N)ncnc21 [Compound 7b]
Solution: 2.08

Exercise: Similarly, CC(C)(C)n1nc(Cc2cccc3ccccc23)c2c(N)ncnc21 [Compound 5d] ?
Solution: 2.15

Exercise: Similarly, CC(C)n1nc(-c2cccc3ccccc23)c2c(N)ncnc21 [Compound 7o] ?
Solution: 2.79

Exercise: Similarly, CCOc1ccc2cc(-c3nn(C(C)C)c4ncnc(N)c34)ccc2c1 [Compound 7r] ?
Solution: 1.08

Exercise: Similarly, CC(C)n1nc(-c2ccc3c(c2)CCCO3)c2c(N)ncnc21 [Compound 7w] ?
Solution: 2.04

Exercise: Similarly, CC(C)n1nc(-c2ccc(Cl)cc2)c2c(N)ncnc21 [Compound 7a] ?
Solution: 2.34

Exercise: Similarly, COc1cc(-c2nn(C(C)C)c3ncnc(N)c23)cc(OC)c1OC [Compound 7l] ?
Solution: 1.97

Exercise: Similarly, Nc1ncnc2c1c(Cc1cccc3ccccc13)nn2CCC1CCNCC1 [Compound 5i] ?
Solution: 1.53

Exercise: Similarly, Cc1ccc(-c2nn(C(C)C)c3ncnc(N)c23)cc1C [Compound 7h] ?
Solution: 1.34

Exercise: Similarly, COc1cc2ccccc2cc1-c1nn(C(C)C)c2ncnc(N)c12 [Compound 7s] ?
Solution: 2.78

Exercise: Similarly, NC(=O)Cn1nc(Cc2cccc3ccccc23)c2c(N)ncnc21 [Compound 5c] ?
Solution: 3.30

Exercise: Similarly, CS(=O)(=O)N1CCC(CCn2nc(Cc3cccc4ccccc34)c3c(N)ncnc32)CC1 [Compound 5r] ?
Solution: 2.30

Exercise: Similarly, CC(=O)N1CCC(n2nc(Cc3cccc4ccccc34)c3c(N)ncnc32)CC1 [Compound 5j] ?
Solution: 2.00

Exercise: Similarly, C#CCn1nc(Cc2cccc3ccccc23)c2c(N)ncnc21 [Compound 5b] ?
Solution: 2.11

Exercise: Similarly, CS(=O)(=O)N1CCC(Cn2nc(Cc3cccc4ccccc34)c3c(N)ncnc32)CC1 [Compound 5q] ?
Solution: 2.85

Exercise: Similarly, COc1ccc(-c2nn(C(C)C)c3ncnc(N)c23)cc1OC [Compound 7k] ?
Solution: 2.23

Exercise: Similarly, CC(C)c1ccc(-c2nn(C(C)C)c3ncnc(N)c23)cc1 [Compound 7d] ?
Solution: 2.32

====

Please respond with reported pEC50 for every item in the list.
- measured_on: PfCDPK1 (Plasmodium falciparum (isolate 3D7), UniProt P62344)
- protocol_description: biochemical
Value format note: pEC50 is -log10 of concentration (mol/L); just state the number.

Exercise: # query: pEC50 of entry `CC(C)(C)n1nc(-c2ccc(NC(=O)CCl)cc2)c2c(N)ncnc21`
Solution: 6.67

Exercise: Similarly, `CC(C)n1nc(-c2ccc3cc(OCc4ccccc4)ccc3c2)c2c(N)ncnc21` ?
Solution: 7.02

Exercise: Similarly, `CC(C)C(=O)Nc1ccc(-c2nn(C(C)(C)C)c3ncnc(N)c23)cc1` ?
Solution: 6.96

Exercise: Similarly, `CC(C)Oc1ccc2cc(-c3nn(C(C)C)c4ncnc(N)c34)ccc2c1` ?
Solution: 6.43

Exercise: Similarly, `CCCCOc1ccc2cc(-c3nn(CC4CCNCC4)c4ncnc(N)c34)ccc2c1` ?
Solution: 6.82

Exercise: Similarly, `CCOc1ccc2cc(-c3nc(C(C)C)n4ccnc(N)c34)ccc2c1` ?
Solution: 6.42

Exercise: Similarly, `CC(C)n1nc(-c2cnc3ccccc3c2)c2c(N)ncnc21` ?
Solution: 5.87

====

- measured_on: HckKD (Homo sapiens (Human), UniProt P08631)
- Sequence (P08631 262-515): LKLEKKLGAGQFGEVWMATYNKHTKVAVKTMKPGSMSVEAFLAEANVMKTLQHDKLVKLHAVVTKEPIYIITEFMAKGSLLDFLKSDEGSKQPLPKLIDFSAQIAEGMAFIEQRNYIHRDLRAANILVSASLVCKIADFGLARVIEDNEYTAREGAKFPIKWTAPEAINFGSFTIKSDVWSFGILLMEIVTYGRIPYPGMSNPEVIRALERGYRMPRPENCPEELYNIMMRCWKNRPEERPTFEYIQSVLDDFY
- protocol_description: Tyrosine kinase IC50, HckKD
- Assay type: biochemical
- condition_label: Table 9
quantity_measured: IC50 (µM)
The response must be a number in µM with no trailing unit.

Exercise: # query: IC50 of entry `Nc1ncnc2c1c(-c1ccc3cc(OCc4ccccc4)ccc3c1)nn2CC1CCNCC1`
Solution: 1.61

Exercise: Similarly, `CCOc1ccc2cc(-c3nn(C(C)C)c4ncnc(N)c34)ccc2c1` ?
Solution: 0.218

====

- protocol_description: Blood levels after oral gavage dosing of mice (LC-MS)
- condition_label: mouse, in vivo, po, 10 mg/kg
Please respond with reported Cmax for every item in the list.
Answer with the figure and its unit, nothing else.

Exercise: # query: Cmax of entry `CCOc1ccc2cc(-c3nn(CC4CCNCC4)c4ncnc(N)c34)ccc2c1`
Solution: 200 nM

Exercise: Similarly, `CCOc1ccc2cc(-c3nn(CC4CCN(C)CC4)c4ncnc(N)c34)ccc2c1` ?
Solution: 800 nM

====

- protocol_description: Blood levels after oral gavage dosing of mice (LC-MS)
- condition_label: mouse, in vivo, po, 40 mg/kg
quantity_measured: concentration at 17 h

Exercise: # query: concentration at 17 h of entry `CCOc1ccc2cc(-c3nn(CC4CCN(C)CC4)c4ncnc(N)c34)ccc2c1`
Solution: 6.3 µM

====

- measured_on: PfCDPK1 (Plasmodium falciparum (isolate 3D7))
- protocol_description: biochemical
Please respond with reported pEC50 for every item in the list.
Value format note: pEC50 is -log10 of concentration (mol/L); just state the number.

Exercise: # query: pEC50 of entry `Cc1ccc(C)c(COc2ccc3cc(-c4nn(C(C)C)c5ncnc(N)c45)ccc3c2)c1`
Solution: 5.64

Exercise: Similarly, `CCOc1ccc2cc(-c3nc(C(C)(C)C)n4ccnc(N)c34)ccc2c1` ?
Solution: 6.70

Exercise: Similarly, `CC(C)c1nc(-c2ccc3ccccc3c2)c2c(N)nccn12` ?
Solution: 6.81

Exercise: Similarly, `COc1ccc2[nH]c(-c3nn(C(C)C)c4ncnc(N)c34)cc2c1` ?
Solution: 6.06

Exercise: Similarly, `Cn1ncc2cc(-c3nn(C(C)(C)C)c4ncnc(N)c34)ccc21` ?
Solution: 6.53

Exercise: Similarly, `CC(C)(C)n1nc(-c2ccccc2)c2c(N)ncnc21` ?
Solution: 6.47

Exercise: Similarly, `Cc1cc(-c2nn(CC3CCNCC3)c3ncnc(N)c23)ccc1-c1ccccc1` ?
Solution: 6.29

Exercise: Similarly, `CC(C)(C)n1nc(-c2ccc(NC(=O)C3CCCC3)cc2)c2c(N)ncnc21` ?
Solution: 7.93

Exercise: Similarly, `Cc1ccc(C(F)(F)F)cc1COc1ccc2cc(-c3nn(C(C)C)c4ncnc(N)c34)ccc2c1` ?
Solution: 5.68

====

Please respond with reported Cell Toxicity HL60, % at 10 μM for every item in the list.
- Tested on: human promyelocytic leukemia (HL-60)
- protocol_description: Growth inhibition of human cell line HL-60
- condition_label: 10 μM

Exercise: # query: Cell Toxicity HL60, % at 10 μM of entry Nc1ncnc2c1c(-c1ccc3cc(O)ccc3c1)nn2CC1CCNCC1 [Compound 119]
Solution: <30% at 10 μM;

Exercise: Similarly, Nc1ncnc2c1c(-c1cnc3ccccc3c1)nn2CC1CCNCC1 [Compound 30] ?
Solution: <30% at 10 μM

Exercise: Similarly, Nc1ncnc2c1c(-c1ccc3cc(OCc4cccc(Cl)c4)ccc3c1)nn2CC1CCNCC1 [Compound 38] ?
Solution: <30% at 10 μM

Exercise: Similarly, CCOc1ccc2cc(-c3nn(C(C)C)c4ncnc(N)c34)ccc2c1 [Compound 7r] ?
Solution: <30% at 10 μM

Exercise: Similarly, CCOc1ccc2cc(-c3nc(C(C)(C)C)n4ccnc(N)c34)ccc2c1 [Compound 69] ?
Solution: <30% at 10 μM

Exercise: Similarly, Nc1ncnc2c1c(-c1ccc3nccnc3c1)nn2CC1CCNCC1 [Compound 122] ?
Solution: <30% at 10 μM

Exercise: Similarly, CC(C)n1nc(-c2ccc3ccccc3c2)c2c(N)ncnc21 [Compound 7p] ?
Solution: 35% at 10 μM

Exercise: Similarly, Nc1ncnc2c1c(-c1ccc3cc(OCc4ccccc4)ccc3c1)nn2CC1CCNCC1 [Compound 34] ?
Solution: <30% at 10 μM

Exercise: Similarly, C=CCOc1ccc2cc(-c3nn(C(C)C)c4ncnc(N)c34)ccc2c1 [Compound 41] ?
Solution: <30% at 10 μM

Exercise: Similarly, CCOc1ccc2cc(-c3nn(CC4CCN(C)CC4)c4ncnc(N)c34)ccc2c1 [Compound 150] ?
Solution: <30% at 10 μM

Exercise: Similarly, CCN1CCC(Cn2nc(Cc3cccc4ccccc34)c3c(N)ncnc32)CC1 [Compound 5n] ?
Solution: <30% at 10 μM

Exercise: Similarly, O=C(NCCO)Nc1nc2ccc(C(=O)c3ccccc3)cc2[nH]1 [Compound 90] ?
Solution: <30% at 10 μM

Exercise: Similarly, CC(C)n1nc(-c2ccc3cc(OCc4ccccc4Cl)ccc3c2)c2c(N)ncnc21 [Compound 46] ?
Solution: <30% at 10 μM

Exercise: Similarly, CC(C)n1nc(-c2cnc3ccccc3c2)c2c(N)ncnc21 [Compound 7t] ?
Solution: <30% at 10 μM

Exercise: Similarly, Nc1ncnc2c1c(Cc1cccc3ccccc13)nn2CC1CCNCC1 [Compound 5h] ?
Solution: <30% at 10 μM

Exercise: Similarly, CC(C)(C)c1nc(-c2cnc3ccccc3c2)c2c(N)nccn12 [Compound 72] ?
Solution: <30% at 10 μM

Exercise: Similarly, CC(C)(C)n1nc(Cc2cccc3ccccc23)c2c(N)ncnc21 [Compound 5d] ?
Solution: <30% at 10 μM

Exercise: Similarly, CC(C)(C)c1nc(-c2ccc3ccccc3c2)c2c(N)nccn12 [Compound 84] ?
Solution: <30% at 10 μM

Exercise: Similarly, CCOc1ccc2cc(-c3nn(C4CCN(C)CC4)c4ncnc(N)c34)ccc2c1 [Compound 148] ?
Solution: <30% at 10 μM

Exercise: Similarly, C=CCOc1ccc2cc(-c3nn(CC4CCNCC4)c4ncnc(N)c34)ccc2c1 [Compound 36] ?
Solution: <30% at 10 μM

Exercise: Similarly, COc1ccc2cc(-c3nn(C(C)C)c4ncnc(N)c34)ccc2c1 [Compound 7q] ?
Solution: <30% at 10 μM

Exercise: Similarly, Nc1ncnc2c1c(-c1ccc3ccccc3c1)nn2CC1CCNCC1 [Compound 147] ?
Solution: 33% at 10 μM

Exercise: Similarly, CC(C)n1nc(-c2ccc3c(ccn3C)c2)c2c(N)ncnc21 [Compound 20] ?
Solution: <30% at 10 μM

Exercise: Similarly, CCCOc1ccc2cc(-c3nn(CC4CCNCC4)c4ncnc(N)c34)ccc2c1 [Compound 33] ?
Solution: <30% at 10 μM

Exercise: Similarly, Cc1cccc2[nH]c(-c3nn(C(C)C)c4ncnc(N)c34)cc12 [Compound 25] ?
Solution: 47% toxicity at

Exercise: Similarly, O=C(CCCC1CCNCC1)Nc1nc2ccc(C(=O)c3ccccc3)cc2[nH]1 [Compound 115] ?
Solution: <30% at 10 μM

Exercise: Similarly, Nc1ncnc2c1c(Cc1cccc3ccccc13)nn2C1CCNCC1 [Compound 5g] ?
Solution: <30% at 10 μM

Exercise: Similarly, Cn1ccc2cc(-c3nc(C(C)(C)C)n4ccnc(N)c34)ccc21 [Compound 70] ?
Solution: 40% at 10 μM

Exercise: Similarly, Cc1cccc2[nH]c(-c3nc(C(C)(C)C)n4ccnc(N)c34)cc12 [Compound 83] ?
Solution: 37% at 10 μM

Exercise: Similarly, Nc1ncnc2c1c(I)nn2CC1CCNCC1 [Compound 98] ?
Solution: <30% at 10 μM

Exercise: Similarly, CC(C)Oc1ccc2cc(-c3nn(C(C)C)c4ncnc(N)c34)ccc2c1 [Compound 11] ?
Solution: <30% at 10 μM

Exercise: Similarly, CCOc1ccc2cc(-c3nn(CC4CCNCC4)c4ncnc(N)c34)ccc2c1 [Compound 29] ?
Solution: <30% at 10 μM
